- targetEntity: A*02:11
- assayRemarks: SPR
pKd: −log10 of the molar value.
propertyName: pKd

binder | propertyName | measuredValue
AS170036 VL1VH1-57K108S (scFv) scFv: QSALTQPRSVSGSPGQSVTISCAGTSSDVGSENYVSWYQQHPGKAPKLMIYQVNKRASGVPDRFSGSKSGNTASLTISGLQAEDEADYYCASYRSSDHNIVFGGGTKLTVLGGGGSGGGGSGGGGSEVQLVESGGGLVQPGGSLRLSCAASGFTFSSYAMSWVRQAPGKGLEWVSTINSGTGKPYYADSVKGRFTISRDNSKNTLYLQMNSLRAEDTAVYYCAKNFFDGSWFLSPPAMDYWGQGTLVTVSSHHHHHH | pKd | 6.43
